Each entry below carries its recorded kon.
Target: T1, human complement protein C5 (human, UniProt P01031 19-1676)
T1 construct: Native C5 is a two-chain protein made from one precursor; also called hC5; human C5
Experiment: SPR (Biacore), pH 7.4
Lab book: enter the figure in M⁻¹ s⁻¹, no units written.

Example binders with recorded kon:
>>> result("CRL0483 (bispecific antibody, anti-C5 VHH / (G4S)3 / anti-albumin VHH fusion, purified by Protein A; also called CRL0483 (C5/HSA)) EVQLVESGGGLVQPGGSLRLSCAASGRTFSGILSPYAVGWFRQAPGKGLEFVSTITSGGSAIYTDSVKGRFTISRDNAKDSLYLQMNSLRAEDTAVYYCAVRTRRYGSNLGEVPQENEYGYWGQGTLVTVSSGGGGSGGGGSGGGGSEVQLLESGGGLVQPGGSLRLSCAASGFTFRSFGMSWVRQAPGKGPEWVSSISGSGSDTLYADSVKGRFTISRDNSKNTLYLQMNSLRPEDTAVYYCTIGGSLSRSSQGTLVTVSS")
225000
>>> result("CRL0499 (bispecific antibody, anti-albumin VHH / (G4S)3 / anti-C5 VHH fusion, purified by Protein A; also called CRL0499 (HSA/C5)) EVQLLESGGGLVQPGGSLRLSCAASGFTFRSFGMSWVRQAPGKGPEWVSSISGSGSDTLYADSVKGRFTISRDNSKNTLYLQMNSLRPEDTAVYYCTIGGSLSRSSQGTLVTVSSGGGGSGGGGSGGGGSEVQLVESGGGLVQPGGSLRLSCAASGRAHSDYAMAWFRQAPGQEREFVAGIGWSGGDTLYADSVRGRFTNSRDNSKNTLYLQMNSLRAEDTAVYYCAARQGQYIYSSMRSDSYDYWGQGTLVTVSS")
"2.22e+06"
>>> result("CRL0500 (bispecific antibody, anti-albumin VHH / (G4S)3 / anti-C5 VHH fusion, purified by Protein A; also called CRL0500 (HSA/C5)) EVQLVESGGGLVKPGGSLRLSCAASGRPVSNYAAAWFRQAPGKEREFVSAINWQKTATYADSVKGRFTISRDNAKNSLYLQMNSLRAEDTAVYYCAAVFRVVAPKTQYDYDYWGQGTLVTVSSGGGGSGGGGSGGGGSEVQLVESGGGLVQPGGSLRLSCAASGRAHSDYAMAWFRQAPGQEREFVAGIGWSGGDTLYADSVRGRFTNSRDNSKNTLYLQMNSLRAEDTAVYYCAARQGQYIYSSMRSDSYDYWGQGTLVTVSS")
"2.88e+06"

Here is another binder to look at.
Entry CRL0484 (bispecific antibody, anti-C5 VHH / (G4S)3 / anti-albumin VHH fusion, purified by Protein A; also called CRL0484 (C5/HSA)) EVQLVESGGGLVQPGGSLRLSCAASGRTFSGILSPYAVGWFRQAPGKGLEFVSTITSGGSAIYTDSVKGRFTISRDNAKDSLYLQMNSLRAEDTAVYYCAVRTRRYGSNLGEVPQENEYGYWGQGTLVTVSSGGGGSGGGGSGGGGSEVQLVESGGGLVKPGGSLRLSCAASGRPVSNYAAAWFRQAPGKEREFVSAINWQKTATYADSVKGRFTISRDNAKNSLYLQMNSLRAEDTAVYYCAAVFRVVAPKTQYDYDYWGQGTLVTVSS has what kon?
70100
